B1: ZNF449 (parent)
chain: QLTGHQRIHSGEEPHKCPECGKRF

# Variants of: B1
# experiment-description: protein stability index of a GFP-peptide fusion (GPS, HEK-293T) (PSI 1-6); higher = more stable;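 further: lentivirally expressed fusions sorted by FACS into six bins by GFP to DsRed ratio, PSI derived from sequencing read proportions per bin multiplied by bin number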
# experimental-setup: c terminus: a fixed tail appended
Everything with protein stability index lower than 4 is no (0); everything else, including exactly 4, is yes (1).

Example cases with answers are listed next.
sequence_data="QSTGHQRIHSGEEPHKCPECGKRF [L2S]" category_label="yes (1)"
sequence_data="QLTNHQRIHSGEEPHKCPECGKRF [G4N]" category_label="no (0)"
sequence_data="QKTGHQRIHSGEEPHKCPECGKRF [L2K]" category_label="yes (1)"
sequence_data="QLTGHQRLHSGEEPHKCPECGKRF [I8L]" category_label="no (0)"

Problem: Identify whether the reported protein stability index of the following variant is 4 or greater: QLTGHQRIHSGEEPHKCPECGKRH [F24H]
Result: yes (1)

Problem: Same lookup for QLTGHQRIHSGEEPHKCKECGKRF [P18K] , please.
Result: yes (1)

Problem: Next: QLTGHQRIHSGEEPHKCPEAGKRF [C20A]
Result: yes (1)
